Listed next: entries and their corresponding Fluorescence wavelength.
assay details: Fluorescence characteristics of base analog nucleosides
Assay type: physicochemical
details: deoxyribonucleoside derivative
All answers are understood in nm, so give the number only.

Consider the following illustrative entries.
OC[C@H]1O[C@@H](n2ccc3c(-c4ccc(-c5cccs5)s4)ccnc32)C[C@@H]1O ... 451
OC[C@H]1O[C@@H](n2ccc3c(-c4ccc(-c5nccs5)s4)ccnc32)C[C@@H]1O ... 445

Return reported Fluorescence wavelength. Input molecule: OC[C@H]1O[C@@H](n2cnc3c(-c4ccc(-c5ccc(-c6cccs6)s5)s4)ccnc32)C[C@@H]1O
489

Return reported Fluorescence wavelength. Input molecule: OC[C@H]1O[C@@H](n2cnc3c(-c4cccs4)ccnc32)C[C@@H]1O [dDs, reference compound]
366

Return reported Fluorescence wavelength. Input molecule: OC[C@H]1O[C@@H](n2ccc3c(-c4ncc(-c5cccs5)s4)ccnc32)C[C@@H]1O
449
